- target_of_assay: Cytochrome P450 2D6 (Homo sapiens)
- Sequence (P10635 whole entry): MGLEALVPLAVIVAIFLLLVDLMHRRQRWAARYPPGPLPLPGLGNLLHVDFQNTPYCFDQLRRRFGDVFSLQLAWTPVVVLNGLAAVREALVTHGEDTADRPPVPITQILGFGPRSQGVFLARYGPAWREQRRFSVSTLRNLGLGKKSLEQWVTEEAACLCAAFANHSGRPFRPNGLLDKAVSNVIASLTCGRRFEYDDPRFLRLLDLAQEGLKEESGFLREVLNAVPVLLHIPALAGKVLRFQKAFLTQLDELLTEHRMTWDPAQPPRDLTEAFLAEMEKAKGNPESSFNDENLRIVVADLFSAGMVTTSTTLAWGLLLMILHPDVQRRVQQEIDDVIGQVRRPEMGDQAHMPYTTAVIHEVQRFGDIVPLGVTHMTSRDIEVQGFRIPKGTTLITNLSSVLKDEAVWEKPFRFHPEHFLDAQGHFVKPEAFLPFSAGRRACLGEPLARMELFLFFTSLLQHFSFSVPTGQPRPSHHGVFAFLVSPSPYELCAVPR
# IC50 listing for each entry below
Kindly answer with a numeric value in nM, unit omitted.

Problem: Which IC50 is reported with Cytochrome P450 2D6 (Homo sapiens) for this entry: c1ccc(COc2ccc(-n3ccnc3)cc2)nc1 ?
Solution: 1040

Problem: Would you kindly repeat that for c1cncc(CCCOc2ccc(-n3ccnc3)cc2)c1 ?
Solution: 1300

Problem: Would you kindly repeat that for c1cc(CCCOc2ccc(-n3ccnc3)cc2)ccn1 ?
Solution: 1040

Problem: Would you kindly repeat that for c1ccc(CCCOc2ccc(-n3ccnc3)cc2)nc1 ?
Solution: 620

Problem: Would you kindly repeat that for CN(C)CCCOc1ccc(-n2ccnc2)cc1 ?
Solution: 400

Problem: Would you kindly repeat that for CN(C)CCOc1ccc(-n2ccnc2)cc1 ?
Solution: 1050

Problem: Would you kindly repeat that for CN(C)CCCCCCOc1ccc(-n2ccnc2)cc1 ?
Solution: 410
